Assay: Cytotoxicity against HEK293T cells assessed as reduction in cell viability measured after 48 hrs by MTT assay
Type: toxicity, cell-based, HEK-293T
Settings: human
Form field: CC50 at 48 h (one value per entry).

CPD_SMILES | CC50 at 48 h / µM
CCC(CC)COC(=O)[C@H](C)N[P@](=O)(OC[C@H]1O[C@@](C#N)(c2ccc3c(N)ncnn23)[C@H](O)[C@@H]1O)Oc1ccccc1 | 2.62
O=c1ccn([C@@H]2S[C@H](CO)[C@@H](O)[C@H]2O)c(=O)[nH]1 | 81.1

====

Test system: SARS-CoV-2
Experiment: Antiviral activity against SARS-CoV-2 Wuhan-like (hCoV-19/Korea/KCDC06/2020) infected in human Calu-3 cells assessed as reduction in number of spike-protein expressing cells pre-infected for 30 mins followed by compound addition and measured 48 hrs post-infection by DAPI staining based immunofluorescence analysis relative to control
Assay type: functional, organism-based
Settings: Severe acute respiratory syndrome coronavirus 2, Wuhan-like (hCoV-19/Korea/KCDC06/2020)
Some compounds, each annotated with its measured EC50.

CPD_SMILES | UNIT_SPEC | EC50
CCC(CC)COC(=O)[C@H](C)N[P@](=O)(OC[C@H]1O[C@@](C#N)(c2ccc3c(N)ncnn23)[C@H](O)[C@@H]1O)Oc1ccccc1 | nM | 570
O=c1ccn([C@@H]2S[C@H](CO)[C@@H](O)[C@H]2O)c(=O)[nH]1 | nM | 4080

====

Assay: AUCinfinity in male ICR mouse at 10 mg/kg, po measured after 24 hrs by LC-MS/MS analysis
Format: ADME, organism-based
Settings: in vivo

CPD_SMILES | AUC(0-inf) (ng·h/mL)
O=c1ccn([C@@H]2S[C@H](CO)[C@@H](O)[C@H]2O)c(=O)[nH]1 | 43600

====

Experiment: Selectivity index, ratio of CC50 for cytotoxicity against golden hamster BHK-21 cells to EC50 for antiviral activity against Dengue virus 2 infected in BHK-21 cells transfected with Renilla luciferase tagged viral subgenomic replicon
Type: toxicity, cell-based
Conditions: read-out: Ratio CC50/EC50

CPD_SMILES | selectivity ratio
NC(=O)c1ncn([C@@H]2O[C@H](CO)[C@@H](O)[C@H]2O)n1 | > 28.8

====

Experiment: AUClast in male ICR mouse at 5 mg/kg, iv measured after 24 hrs by LC-MS/MS analysis
Type: ADME, organism-based
Details: in vivo
PARAMETER: AUC(0-t) at 24 h

CPD_SMILES | READING
O=c1ccn([C@@H]2S[C@H](CO)[C@@H](O)[C@H]2O)c(=O)[nH]1 | 17500 ng·h/mL

====

Assay: Cytotoxicity against golden hamster BHK-21 cells assessed as reduction in cell viability by MTT assay
Assay type: toxicity, cell-based, Mesocricetus auratus
PARAMETER: CC50 (µM)

CPD_SMILES | PREFIX_OPERATOR | READING
NC(=O)c1ncn([C@@H]2O[C@H](CO)[C@@H](O)[C@H]2O)n1 | > | 100
O=c1ccn([C@@H]2S[C@H](CO)[C@@H](O)[C@H]2O)c(=O)[nH]1 | = | 93.7

====

Assay: Selectivity index, ratio of CC50 for cytotoxicity against MDCK cells to EC50 for antiviral activity against Influenza A virus A/Hong Kong/8/68 (H3N2) infected in MDCK cells assessed as reduction in virus-induced cytopathic effect
Type: toxicity, cell-based
Conditions: dog, read-out: Ratio CC50/EC50

CPD_SMILES | selectivity ratio
NC(=O)c1ncn([C@@H]2O[C@H](CO)[C@@H](O)[C@H]2O)n1 | > 5.82

Cited source: ChEMBL document CHEMBL6182943
